The following compounds are listed with their measured Ki values.
# system: Muscarinic acetylcholine receptor M1 (Homo sapiens, UniProt P11229)
# Sequence (P11229 whole entry): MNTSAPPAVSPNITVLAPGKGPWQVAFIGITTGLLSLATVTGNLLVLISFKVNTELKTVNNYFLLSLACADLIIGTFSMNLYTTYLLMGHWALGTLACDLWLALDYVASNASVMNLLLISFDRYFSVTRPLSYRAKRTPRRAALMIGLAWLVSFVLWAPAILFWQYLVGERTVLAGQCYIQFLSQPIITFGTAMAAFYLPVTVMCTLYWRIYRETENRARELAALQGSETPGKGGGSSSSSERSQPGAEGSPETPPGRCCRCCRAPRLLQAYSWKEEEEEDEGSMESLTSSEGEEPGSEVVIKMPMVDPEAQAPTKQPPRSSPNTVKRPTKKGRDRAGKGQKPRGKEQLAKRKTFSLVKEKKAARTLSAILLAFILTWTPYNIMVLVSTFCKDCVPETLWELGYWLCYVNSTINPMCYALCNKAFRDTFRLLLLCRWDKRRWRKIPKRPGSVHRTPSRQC
# assay-text: Binding affinity against human Muscarinic acetylcholine receptor M1 in transfected CHO cells
Respond numerically; units are nM and should not be typed.

Q) // Ki lookup, key: "O=C(Nc1ccc2c(c1)CNC2)[C@](O)(c1ccccc1)[C@@H]1CCC(F)(F)C1"
A) 630

Q) Follow-up entry: "O=C(N1CCNCC1)[C@](O)(c1ccccc1)[C@@H]1CCC(F)(F)C1"
A) 30

Q) Next: "NCC=C1CCN(C(=O)[C@](O)(c2ccccc2)[C@@H]2CCC(F)(F)C2)CC1"
A) 1.3
